Biological target: T1, TRIB3-GST protein (UniProt Q96RU7 1-358)
T1 chain: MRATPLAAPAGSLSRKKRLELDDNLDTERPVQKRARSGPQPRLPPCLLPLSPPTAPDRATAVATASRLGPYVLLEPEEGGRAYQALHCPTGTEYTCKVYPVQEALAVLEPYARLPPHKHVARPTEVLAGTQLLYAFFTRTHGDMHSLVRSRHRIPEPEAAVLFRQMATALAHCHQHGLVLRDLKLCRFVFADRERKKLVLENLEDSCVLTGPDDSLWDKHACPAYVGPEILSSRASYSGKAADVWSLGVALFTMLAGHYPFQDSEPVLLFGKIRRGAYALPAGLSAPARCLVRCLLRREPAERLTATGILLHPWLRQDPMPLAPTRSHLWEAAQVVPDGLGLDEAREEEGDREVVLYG
Assay: SPR
Could you please report measured pKd for the items listed next?
Answers are plain numbers, as −log10 of the molar value.

Solved entries:
BINDER	MEASUREMENT
EVAHTLTENRALQN [M10]	6.12
EVAATLTENRVLQN [M3]	6.77

Kindly consider the entry below.
Value lookup for pKd; key = VAHTLTENRVLQN [peptide Ae]
6.52

These measurements were taken from paper PMC6915745.
